# method: NCI Yeast Anticancer Drug Screen. Data for the bub3 strain (AID 167)
# measurementParameters: S. cerevisiae bub3 mutant strain, at 50.0 µM
The panel holds about 79,000 compounds, 15% with a hit somewhere; the sample as a whole holds those more often. Active and inactive are the calls of the source. Cut-off read from the data, not from the text of the source: active = growth inhibition above about 70%; inactive = the rest.
Tick one outcome: true for active, false for inactive

## Task // return assay outcome for CCCOc1ccc(/C=C/[N+](=O)[O-])cc1N
## Result true

## Task // return assay outcome for S=C(S)N1CCOCC1
## Result true

## Task // return assay outcome for CNC1=C(C)C(=O)C2=C(C1=O)C(COC(N)=O)C1(O)C3C(CN21)N3C (stereo not given)
## Result false

## Task // return assay outcome for Oc1cccc2nc3ccccc3nc12
## Result false

## Task // return assay outcome for C[C@]12CC[C@H](OC(=O)COc3ccc(N(CCCl)CCCl)cc3)C[C@@H]1CC[C@@H]1[C@@H]2CC[C@]2(C)NC(=O)CC[C@@H]12
## Result false

## Task // return assay outcome for CC(=O)C1CCC2C3CCC4CC([N+]5(C)CCCCC5)CCC4(C)C3CCC12C (stereo not given)
## Result true

## Task // return assay outcome for N#CN(Cc1ccccc1)C(c1ccccc1)(c1ccccc1)c1ccccc1.[Cl][Sn]([c]1ccccc1)([c]1ccccc1)[c]1ccccc1
## Result true

## Task // return assay outcome for ClCCN(CCCl)c1ccc(CNCCCNCc2ccc(N(CCCl)CCCl)cc2)cc1
## Result false

## Task // return assay outcome for CCC1(O)C(=O)OCc2c1cc1n(c2=O)Cc2cc3cc(Cl)ccc3nc2-1 (stereo not given)
## Result false

## Task // return assay outcome for COc1ccc(CNCCc2ccc(O)c(OC)c2)cc1O
## Result false

====

# method: NCI Yeast Anticancer Drug Screen. Data for the rad18 strain (AID 177)
# measurementParameters: S. cerevisiae rad18 mutant growth inhibition; at 33.0 µM
This is part of a sample that, as a whole, favours compounds with a hit. Of some 79,000 tested, about 15% had one in any assay. Activity calls are given as the source filed them. No stated cut-off is given here; in the data, active means growth inhibition above about 70%; inactive means the rest.
Tick one outcome: Y for active, N for inactive

## Task // return assay outcome for Nc1nc(-c2ccccc2)c(-c2ccccc2)[se]1
## Result N

## Task // return assay outcome for O=P(Oc1ccc(Cl)cc1)(Oc1ccc(Cl)cc1)N1CC1
## Result N

## Task // return assay outcome for CC1(Cl)CC(C)(/C=C/Cl)C(Cl)CC1Cl (stereo unspecified)
## Result N

## Task // return assay outcome for CC1=C[C@H]2O[C@@H]3C[C@H]4OC(=O)/C=C\C=C\C(C(C)O)OCC(O)C(C)CC(=O)OC[C@@]2(C[C@@H]1O)[C@]4(C)[C@@]31CO1 (stereo partly specified)
## Result Y

## Task // return assay outcome for c1cc2c(cc1C1OC[C@H]3[C@@H](c4ccc5c(c4)OCO5)OC[C@@H]13)OCO2 (stereo partly specified)
## Result N

## Task // return assay outcome for CCOP(=S)(S)OCC.[Pd]
## Result Y

## Task // return assay outcome for O=S(=O)(O)c1ccc(Cl)cc1.[Cd]
## Result N

## Task // return assay outcome for N#Cc1cc(N(CCCl)CCCl)c([N+](=O)[O-])cc1[N+](=O)[O-]
## Result Y

## Task // return assay outcome for S=C1NC2(CCCCC2)NC12CCCCC2
## Result N

## Task // return assay outcome for Nc1nc(N)c(-c2ccc(Cl)c(Cl)c2)c(CP(Cl)(Cl)(Cl)Br)n1
## Result Y

## Task // return assay outcome for COc1ccc(OC)c(/C=C/[N+](=O)[O-])c1
## Result N

====

# method: NCI Yeast Anticancer Drug Screen. Data for the CLN2oe strain (AID 163);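 note: 0% = growth of vehicle-only control cultures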
# measurementParameters: S. cerevisiae CLN2oe strain, at 100.0 µM, stronger effect = higher value
# Protocol: Growth inhibition of yeast strains with defined genetic alterations is measured as a screen for potential anti-cancer activity. Selected strains with alterations in DNA damage repair or cell cycle control were exposed to compounds and growth inhibition was measured relative to vehicle treated controls. The strain used in this assay is CLN2oe
This is part of a sample that, as a whole, favours compounds with a hit. Of some 79,000 tested, about 15% had one in any assay.
Exercise: for every item that follows, state its recorded growth inhibition.
Just the number in %, nothing appended.

## Task Param item = CC1CC(Br)C(=O)O1 (stereo unspecified) ; retrieve measured growth inhibition.
## Result 96

## Task Param item = OC1CCCC2CCC[N-]C12.OC1CCCC2CCC[N-]C12.[O]=[V][OH] (stereo unspecified) ; retrieve measured growth inhibition.
## Result 96

## Task Param item = O=C1c2ccccc2C(=O)C(Cl)C1Cl (stereo unspecified) ; retrieve measured growth inhibition.
## Result 98

## Task Param item = CNC(=O)OCC1C2=C(C(=O)C(C)=C(N)C2=O)N2CC3C(N3C)C12OC (stereo unspecified) ; retrieve measured growth inhibition.
## Result 37

## Task Param item = COC(=O)C(F)C(Br)C(=O)OC (stereo unspecified) ; retrieve measured growth inhibition.
## Result 100

## Task Param item = C[C@@]12CCC(=O)C=C1CC[C@H]1C2=CC[C@]2(C)C1CC[C@@]2(C)O (stereo partly specified) ; retrieve measured growth inhibition.
## Result 93

## Task Param item = CC1CC(C)CC(C)C(O)/C(C#N)=C/C=C/CC(C2CCCC2C(=O)O)OC(=O)CC(O)C(C)C1 (stereo unspecified) ; retrieve measured growth inhibition.
## Result 97

## Task Param item = Cn1cnc(N)c1C(=N)[Se] ; retrieve measured growth inhibition.
## Result 28

## Task Param item = CCOP(=S)(S)OCC.[Pd] ; retrieve measured growth inhibition.
## Result 77

## Task Param item = Cc1nc2ccccc2cc1C[N+]12CN3CN(CN(C3)C1)C2 ; retrieve measured growth inhibition.
## Result 25

## Task Param item = O=S(=O)(O)/C(=C\c1ccccc1)c1ccccc1 (tested in a mixture with another compound) ; retrieve measured growth inhibition.
## Result 2

====

Exercise: for every item that follows, state its recorded growth inhibition.
# method: NCI Yeast Anticancer Drug Screen. Data for the mlh1 strain (AID 171);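 note: 0% = growth of vehicle-treated control cultures of the same strain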
# measurementParameters: S. cerevisiae mlh1 strain growth inhibition; at 1.2 µM; stronger effect = higher value
Compounds without any hit were thinned out: in the full panel of roughly 79,000, 15% have a hit.
Just the number in %, nothing appended.

## Task Param item = O=C1c2ccccc2C(=O)C(Cl)C1Cl (centres undefined) ; retrieve measured growth inhibition.
## Result 1

## Task Param item = CN(N=O)C(=O)NNC(=O)N(C)N=O ; retrieve measured growth inhibition.
## Result -1

## Task Param item = C=CC[N+]12CN3CN(CN(C3)C1)C2 ; retrieve measured growth inhibition.
## Result -25

## Task Param item = COC(COC(=O)N1CCN(C=O)CC1)C1=C(N2CC2)C(=O)C(C)=C(N2CC2)C1=O (centres undefined) ; retrieve measured growth inhibition.
## Result -7

## Task Param item = CS(=O)(=O)OCCN(CCOS(C)(=O)=O)c1ccc(C=O)cc1 ; retrieve measured growth inhibition.
## Result 2

## Task Param item = C[C@]12CCc3nonc3C1CC[C@@H]1C2CC[C@]2(C)C(=O)CCC12 (some centres undefined) ; retrieve measured growth inhibition.
## Result -4

## Task Param item = COc1cc([C@@H]2c3cc4c(cc3C[C@@H]3COC(=O)C32)OCO4)cc(OC)c1O (some centres undefined) ; retrieve measured growth inhibition.
## Result 9

## Task Param item = Cc1c(N)nc([C@H](CC(N)=O)NC[C@H](N)C(N)=O)nc1C(=O)N[C@H](C(=O)N[C@H](C)[C@@H](O)[C@H](C)C(=O)N[C@H](C(=O)NCCc1nc(-c2nc(C(=O)NCCC[S+](C)C)cs2)cs1)[C@@H](C)O)C(OC1OC(CO)C(O)C(O)C1OC1OC(CO)C(O)C(OC(N)=O)C1O)c1cnc[nH]1 (some centres undefined) ; retrieve measured growth inhibition.
## Result 0

## Task Param item = Cn1cc(NC(=O)c2cc(NC(=O)CN=C(N)N)cn2C)cc1C(=O)NCCC(=N)N ; retrieve measured growth inhibition.
## Result -8

## Task Param item = CCCCCCCCCC[Se]C#N ; retrieve measured growth inhibition.
## Result -1

## Task Param item = O=C(/C=C(\c1ccccc1)N1CC1)c1ccccc1 ; retrieve measured growth inhibition.
## Result 7

## Task Param item = Nc1ccc(Cl)cc1C(=O)c1ccccc1 ; retrieve measured growth inhibition.
## Result -23

## Task Param item = COC(=O)C1c2cc3c(c(O)c2C(O)CC1(C)O)C(=O)c1c(O)cc2c(c1C3=O)OC1OC2(C)C(O)C(N(C)C)C1O (centres undefined) ; retrieve measured growth inhibition.
## Result -4

## Task Param item = BrCC[N+]12CC[N+](CCBr)(CC1)C2 ; retrieve measured growth inhibition.
## Result 12

## Task Param item = O=[N+]([O-])c1oc2ccc3ccccc3c2c1CCO ; retrieve measured growth inhibition.
## Result 10

## Task Param item = COC(=O)c1c(C)ccc2c(O)c3c(cc12)C(=O)c1c2c(cc(O)c1C3=O)C1(C)OC(C)(O2)C(O)C(N(C)C)C1O (centres undefined) ; retrieve measured growth inhibition.
## Result 2

## Task Param item = O=C(O)C1C2c3ccccc3C(c3ccccc32)C1C(=O)O (centres undefined) ; retrieve measured growth inhibition.
## Result -4

## Task Param item = CCC1(OC(=O)CN)C(=O)OCc2c1cc1n(c2=O)Cc2cc3ccccc3nc2-1 (centres undefined) ; retrieve measured growth inhibition.
## Result 3

## Task Param item = O=[N+]([O-])O.[NH-]C1CCCCC1[NH-].[NH-]C1CCCCC1[NH-].[NH-]C1CCCCC1[NH-].[OH-].[OH-].[OH-].[Pt+4].[Pt+4].[Pt+4] (centres undefined) ; retrieve measured growth inhibition.
## Result 2

## Task Param item = O=C1C2CC(Cl)C(SSC3CC4C(=O)N(SC(Cl)(Cl)C(Cl)Cl)C(=O)C4CC3Cl)CC2C(=O)N1SC(Cl)(Cl)C(Cl)Cl (centres undefined) ; retrieve measured growth inhibition.
## Result 64

## Task Param item = O=Cc1ccc(C(F)(F)F)cc1.[C-]#[O+].[C-]#[O+].[C-]#[O+].[Cr] ; retrieve measured growth inhibition.
## Result -1

## Task Param item = Cc1c([N+](=O)[O-])oc2ccc3ccccc3c12 ; retrieve measured growth inhibition.
## Result -1

## Task Param item = Oc1cccc2cccnc12 ; retrieve measured growth inhibition.
## Result 1

## Task Param item = COc1cc(C2c3cc4c(cc3[C@@H](Nc3ccc(N)cc3)C3COC(=O)[C@H]23)OCO4)cc(OC)c1O (some centres undefined) ; retrieve measured growth inhibition.
## Result -4

## Task Param item = Nc1nc(-c2ccccc2)c(-c2ccccc2)[se]1 ; retrieve measured growth inhibition.
## Result 0

## Task Param item = c1c(N2CCOCC2)ssc1=[N+]1CCOCC1 ; retrieve measured growth inhibition.
## Result -1

## Task Param item = COC1CC(CC2CCC(C)C(C(C)C(=O)O)O2)OC2(OC(C)(C3CCC(C)(C4OC(C5OC(O)(CO)C(C)CC5C)CC4C)O3)CC2C)C1C (centres undefined) ; retrieve measured growth inhibition.
## Result -3

## Task Param item = CC1=C(O)C(=O)C=C2C1=CC=C1[C@@]2(C)CCC2(C)[C@@H]3C[C@@H](C)C(=O)C[C@]3(C)CC[C@]12C (some centres undefined) ; retrieve measured growth inhibition.
## Result 14

## Task Param item = CC1CC(Br)C(=O)O1 (centres undefined) ; retrieve measured growth inhibition.
## Result -54

## Task Param item = C/C(=N\NC(N)=O)C(CN1CCOCC1)C(c1ccccc1)c1c(O)c2ccccc2oc1=O (centres undefined) ; retrieve measured growth inhibition.
## Result -2

## Task Param item = CCNC(=O)OCC1C2=C(C(=O)C(C)=C(N)C2=O)N2CC3C(N3C)C12OC (centres undefined) ; retrieve measured growth inhibition.
## Result 15

## Task Param item = CC1CC(C)CC(C)C(O)/C(C#N)=C/C=C/CC(C2CCCC2C(=O)O)OC(=O)CC(O)C(C)C1 (centres undefined) ; retrieve measured growth inhibition.
## Result 90

## Task Param item = CO[C@H](/C(C)=C/C=C/C(C)=C/c1coc(C)n1)[C@H](C)[C@H]1C[C@@H](O)[C@@]2(C)O[C@H]2/C=C/[C@@H](C)[C@@H]2C[C@@H](CC(=O)O2)C[C@H]2O[C@@H]2C(=O)O1 ; retrieve measured growth inhibition.
## Result 10

## Task Param item = COc1ccc(/C=C(/C)[N+](=O)[O-])cc1 ; retrieve measured growth inhibition.
## Result -12

## Task Param item = CCN(CC)CCBr ; retrieve measured growth inhibition.
## Result -1

## Task Param item = OC1(c2ccccc2)CC2CCC(C1)N2CCCC(O)(c1ccccc1)c1ccccc1 (centres undefined) ; retrieve measured growth inhibition.
## Result 1

## Task Param item = O=C1C=CC(=O)C1(Br)Br ; retrieve measured growth inhibition.
## Result 1

## Task Param item = COc1cc2ccccc2c2cc([N+](=O)[O-])oc12 ; retrieve measured growth inhibition.
## Result 7

## Task Param item = CC1(Cl)CC(C)(/C=C/Cl)C(Cl)CC1Cl (centres undefined) ; retrieve measured growth inhibition.
## Result 2
